tested on: U2OS; test: cell viability relative to DMSO; higher = less toxic; conditions: 72 h; 100 nM
measured.parameter: cell viability (%)
// units = %; emit number, no label

Study these solved cases before continuing.
{"chemical.string": "NC1=N[C@@](c2cccc(-c3cncnc3)c2)(c2ccnc(C(F)F)c2)c2cccc(F)c21", "target.or.test.system": "U2OS", "measured.parameter": "cell viability", "unit.label": "%", "observed": 106}
{"chemical.string": "C[C@@H](NC(=O)CCc1nc2ccccc2c(=O)[nH]1)c1ccccc1", "target.or.test.system": "U2OS", "measured.parameter": "cell viability", "unit.label": "%", "observed": 103}
{"chemical.string": "COc1ccc(-c2cnc3c(-c4cccc5ncccc45)cnn3c2)cc1", "target.or.test.system": "U2OS", "measured.parameter": "cell viability", "unit.label": "%", "observed": 105}

Q: Which cell viability reading was recorded for the compound Cc1cc(NC(=O)C2=C(O)c3ccccc3S(=O)(=O)N2C)no1 ?
Result: 98.4

Q: Which cell viability reading was recorded for the compound Cn1c2c(c3ccccc31)CCNCC2 ?
Result: 98.3

Q: Which cell viability reading was recorded for the compound O=C(O)CCc1cc(I)c(Oc2ccc(O)cc2)c(I)c1 ?
Result: 95.8

Q: Which cell viability reading was recorded for the compound CNCc1ccc(C)c(NC(=O)c2ccc(Nc3nc(-c4ccccc4)c4ccccc4n3)cc2)c1 ?
Result: 103

Q: Which cell viability reading was recorded for the compound OCc1ccc(-c2ccc(-c3ccc(CO)s3)o2)s1 ?
Result: 102

Q: Which cell viability reading was recorded for the compound CN(C)[C@@H]1C(O)=C(C(N)=O)C(=O)[C@@]2(O)C(O)=C3C(=O)c4c(O)ccc(Cl)c4[C@@H](O)[C@H]3C[C@@H]12 ?
Result: 101

Q: Which cell viability reading was recorded for the compound Nc1nc2c(cnn2CCc2ccccc2)c2nc(-c3ccco3)nn12 ?
Result: 92.7

* * *

Each record here notes measured cell viability.
test system: Calu-3; assay: cell viability relative to DMSO; higher = less toxic; conditions: 72 h; 1 nM
// units = %; emit number, no label

Study these solved cases before continuing.
{"chemical.string": "CCOC(=O)N1c2ccc(C(F)(F)F)cc2[C@@H](N(Cc2cc(C(F)(F)F)cc(C(F)(F)F)c2)C(=O)OC)C[C@H]1CC", "target.or.test.system": "Calu-3", "cell viability / %": 96.4}
{"chemical.string": "O=C(O)c1ccc(S(=O)(=O)N(Cl)Cl)cc1", "target.or.test.system": "Calu-3", "cell viability / %": 106}
{"chemical.string": "CCCCN1[C@@H]2CC[C@H]1C[C@@H](OC(c1ccc(F)cc1)c1ccc(F)cc1)C2", "target.or.test.system": "Calu-3", "cell viability / %": 96.8}
{"chemical.string": "C1COC(NC(C2CC2)C2CC2)=N1", "target.or.test.system": "Calu-3", "cell viability / %": 98.6}
{"chemical.string": "CC1(CN)Cc2ccccc2C1", "target.or.test.system": "Calu-3", "cell viability / %": 109}

Now consider a different compound.
Q: Which cell viability reading was recorded for the compound COc1cc(C(=O)NCC2(N(C)C)CCCC2)cc(OC)c1OCc1ccccc1 ?
Result: 94.3

* * *

test system: Caco-2; test: cell viability relative to DMSO; higher = less toxic; conditions: 72 h; 100 nM
measured.parameter: cell viability (%)
// units = %; emit number, no label

Study these solved cases before continuing.
{"molecule": "CCOC(=O)N1c2ccc(C(F)(F)F)cc2[C@@H](N(Cc2cc(C(F)(F)F)cc(C(F)(F)F)c2)C(=O)OC)C[C@H]1CC", "cell viability (%)": 100}
{"molecule": "COc1ccc(-n2[nH]c3c4c(ncc3c2=O)CCCCC4)cc1", "cell viability (%)": 95.7}

Q: Which cell viability reading was recorded for the molecule NCCCCN(Cc1nc2ccccc2[nH]1)[C@H]1CCCc2cccnc21 ?
Result: 97.1

Q: Which cell viability reading was recorded for the molecule C[C@]12C=CC(=O)C=C1CC[C@@H]1[C@@H]2[C@@H](O)C[C@@]2(C)[C@H]1CC[C@]2(O)C(=O)COP(=O)(O)O [prednisolone-sodium-phosphate] ?
Result: 98.4

Q: Which cell viability reading was recorded for the molecule CC(C)(C)C(=O)/C(=N/c1ccc(Cl)cc1)NNc1ccc(Cl)cc1 ?
Result: 91.4

Q: Which cell viability reading was recorded for the molecule C[C@H](N)C(=O)N[C@@H](CCC(N)=O)C(=O)O ?
Result: 96.5

Q: Which cell viability reading was recorded for the molecule C(#Cc1nc2ncccc2nc1OCCN1CCCC1)c1ccccc1 ?
Result: 101

Q: Which cell viability reading was recorded for the molecule NC(=O)NCCN1CCN(c2cccc(C(F)(F)F)c2)CC1 ?
Result: 85.3

Source: the supplement of paper PMC13380429
